Cited source: the RepoRT retention time repository

- protocol.details: Agilent ZORBAX 300 SB-C18, 150 × 1 mm, 3.5 µm; A: water + 0.01% heptafluorobutyric acid; B: acetonitrile + 0.01% heptafluorobutyric acid; gradient (min/%B) 0/0 100/90
- reported.conditions: stereoisomer not certain
measurement.name: LC retention time (min)
Only the number, expressed in min, is required.

Reference set (2 entries):
compound	reported
Cc1nc2ccc(NC(=S)N(C)C)cc2nc1C	8.82
O=C(O)C1CCCN1Cc1ccccc1 (stereo not drawn)	6.6

Query compound follows.
Task: Give its LC retention time value. Item: `CC(C)CNC(=O)C(=O)Nc1ccc(N(C)C)cc1`
Result: 9.98

----------
- protocol.details: Agilent ZORBAX 300 SB-C18, 150 × 1 mm, 3.5 µm; A: water + 0.01% heptafluorobutyric acid; B: acetonitrile + 0.01% heptafluorobutyric acid; gradient (min/%B) 0/0 100/90
- reported.conditions: stereoisomer not certain
Reported LC retention time by item:
Only the number, expressed in min, is required.

Reference set (10 entries):
compound	unit.of.measurement	LC retention time
Nc1ccc2[nH]ccc2c1	min	7.01
C=CCC1(CC=C)CCCCN1	min	8.76
CCN(CC)CCOC(=O)C(c1ccccc1)C1CCCCC1 (configuration not stated)	min	13
c1ccc2c(-n3ccnc3)nccc2c1	min	8.37
NC1CCOCC1	min	4.24
CC(C)NCC(O)COc1cccc2[nH]ccc12 (configuration not stated)	min	8.75
CCc1ncc[nH]1	min	6.1
c1ccc(-c2cccc(-c3ccccn3)n2)nc1	min	9.29
c1nc2c(ccc3[nH]cnc32)[nH]1	min	6.84
COc1cc(N2C=C3N=C(c4ccccc4)NN3C=N2)cc(OC)c1OC	min	12.1

Task: Give its LC retention time value. Item: `c1cc(CCc2ccncc2)ccn1`
Result: 7.28

Task: Give its LC retention time value. Item: `Cc1nc(N=C(N)N)nc2c(C)cccc12`
Result: 9.23

Task: Give its LC retention time value. Item: `COc1ccc(Cc2c(O)n(C)c(=O)n(C)c2=O)c(OC)c1OC`
Result: 11.2

Task: Give its LC retention time value. Item: `Nc1ccc2ncc(=O)[nH]c2c1`
Result: 6.59

Task: Give its LC retention time value. Item: `Cc1ccc(C=NNC(=O)c2ccc(N)cc2)cc1`
Result: 10.3
